biological target: human orexin 1 receptor (Homo sapiens); assay: Human orexin 1 receptor radioligand binding; conditions: human orexin 1 receptor; averages of 2-20 runs; read-out: hOX1 Ki
Recorded Metric: Ki (nM)
The reply should contain only the number, in nM.

Consider the worked cases shown below.
| Compound | Target Under Test | Ki / nM |
| --- | --- | --- |
| Cc1cnc(N[C@@H]2C[C@H]3C[C@@H]2N(C(=O)c2cccc(F)c2-c2ncccn2)C3)cn1 | human orexin 1 receptor (Homo sapiens) | 27 |
| O=C(c1cc(F)ccc1-n1nccn1)N1C[C@H]2C[C@@H](Oc3cnc(C(F)(F)F)cn3)[C@@H]1C2 | human orexin 1 receptor (Homo sapiens) | 109 |
| Cc1nc(C(=O)N2CC3CC(Oc4ccc(C(F)(F)F)cn4)C2C3)c(-c2ccc(F)cc2)s1 (racemic) | human orexin 1 receptor (Homo sapiens) | 18 |
| Cc1ccc(-n2nccn2)c(C(=O)N2C[C@H]3C[C@@H](N(C)c4ccc(C(F)(F)F)cn4)[C@@H]2C3)n1 | human orexin 1 receptor (Homo sapiens) | 5 |

Measured Ki of `CCc1cnc(O[C@@H]2C[C@H]3C[C@@H]2N(C(=O)c2cccc(F)c2-c2ncccn2)C3)nc1` : 65

Value of measured Ki for the entry `Cc1cccc(C(=O)N2C[C@H]3C[C@@H](Nc4cnc(C(F)(F)F)cn4)[C@@H]2C3)c1-n1nccn1` : 4

Per the record, `O=C(c1cccc(F)c1-n1nccn1)N1C[C@H]2C[C@@H](Nc3nc4ccccc4o3)[C@@H]1C2` has Ki of 4

Data point: `Cc1ccc(-n2nccn2)c(C(=O)N2C[C@H]3C[C@@H](Oc4cnc(C(F)(F)F)cn4)[C@@H]2C3)n1` ; Ki = 88

----------
biological target: human orexin 2 receptor (Homo sapiens (Human)); test: Human orexin 2 receptor radioligand binding; details: human orexin 2 receptor; averages of 2-20 runs; read-out: hOX2 Ki
pKi: −log10 of the molar value.
Each entry gets condition not met if its pKi stays under 6, and condition met if its pKi is 6 or above.

Examples from the recorded data:
| Smiles Structure | Assigned Category |
| --- | --- |
| O=C(c1ccccc1-n1nccn1)N1C[C@H]2C[C@@H](Nc3ncc(C(F)(F)F)cn3)[C@@H]1C2 | condition met |
| O=C(c1c(F)cccc1-c1ncccn1)N1C[C@H]2C[C@@H](Oc3cnc(C(F)(F)F)cn3)[C@@H]1C2 | condition not met |

[Q] Does the reported pKi for `O=C(c1cccc(F)c1-c1ncccn1)N1C[C@H]2C[C@@H](Oc3ccc(C(F)(F)F)nn3)[C@@H]1C2` fall at or above the 6 mark?
[A] condition not met

[Q] Decide: pKi of `O=C(c1ccccc1-n1nccn1)N1C[C@H]2C[C@@H](Nc3ccc(Cl)cn3)[C@@H]1C2` >= 6?
[A] condition met

[Q] Hello, I need to know if `O=C(c1ccccc1-n1nccn1)N1C[C@H]2C[C@@H](Nc3cnc(C(F)(F)F)cn3)[C@@H]1C2` has measured pKi not below 6. Thanks!
[A] condition met

----------
molecular target: human orexin 1 receptor (Homo sapiens, UniProt O43613); assay: Human orexin 1 receptor radioligand binding; settings: human orexin 1 receptor; averages of 2-20 runs; read-out: hOX1 Ki
pKi: −log10 of the molar value.
Would you please tag the item Met when its pKi is 8 or above, and Not met when it is below?

Here are 5 compounds together with their reported answers.
| Smiles Structure | Assigned Category |
| --- | --- |
| Cc1ccc(-n2nccn2)c(C(=O)N2C[C@H]3C[C@@H](Nc4ncc(C(F)(F)F)cn4)[C@@H]2C3)n1 | Not met |
| O=C(c1ccccc1-n1nccn1)N1C[C@H]2C[C@@H](Oc3ccc(Br)cn3)[C@@H]1C2 | Met |
| O=C(c1c(F)cccc1-c1ncccn1)N1C[C@H]2C[C@@H](Nc3ncc(Cl)cn3)[C@@H]1C2 | Not met |
| Cc1cnc(C(=O)N2C[C@H]3C[C@@H](Oc4ccc(C(F)(F)F)cn4)[C@@H]2C3)c(-c2ncccn2)c1 | Not met |
| O=C(c1c(F)cccc1-n1nccn1)N1C[C@H]2C[C@@H](Nc3ncc(C(F)(F)F)cn3)[C@@H]1C2 | Not met |

[Q] pKi >= 8 for `Cc1ccc(O[C@@H]2C[C@H]3CC[C@@H]2N(C(=O)c2cccc(F)c2-c2ncccn2)C3)nc1` ?
[A] Not met

----------
pKi reference
target: human orexin 1 receptor (Homo sapiens); test: Human orexin 1 receptor radioligand binding; conditions: human orexin 1 receptor; averages of 2-20 runs; read-out: hOX1 Ki
Reminder that pKi means the negative base-10 logarithm of the concentration expressed in mol/L.

Some solved entries appear below for comparison.
| Compound | Measured Value |
| --- | --- |
| O=C(c1cccc(F)c1-c1ncccn1)N1C[C@H]2C[C@@H](Nc3ccc(C(F)(F)F)nn3)[C@@H]1C2 | 7.28 |
| O=C(c1cccc(F)c1-c1ncccn1)N1CC2CCC1C(Nc1cnc(C(F)(F)F)cn1)C2 (racemic) | 7.62 |
| CN(c1cnc(C(F)(F)F)cn1)[C@@H]1C[C@H]2C[C@@H]1N(C(=O)c1ccccc1-c1ncccn1)C2 | 8.30 |

Please examine the following record next.
The compound listed as `O=C(c1ccccc1-c1ncccn1)N1C[C@H]2C[C@@H](Oc3ncc(C(F)(F)F)cc3F)[C@@H]1C2` has a reported pKi of 8.00

----------
pKi reference
target: human orexin 2 receptor (Homo sapiens (Human), UniProt O43614); assay: Human orexin 2 receptor radioligand binding; settings: human orexin 2 receptor; averages of 2-20 runs; read-out: hOX2 Ki
Sequence (O43614 whole entry): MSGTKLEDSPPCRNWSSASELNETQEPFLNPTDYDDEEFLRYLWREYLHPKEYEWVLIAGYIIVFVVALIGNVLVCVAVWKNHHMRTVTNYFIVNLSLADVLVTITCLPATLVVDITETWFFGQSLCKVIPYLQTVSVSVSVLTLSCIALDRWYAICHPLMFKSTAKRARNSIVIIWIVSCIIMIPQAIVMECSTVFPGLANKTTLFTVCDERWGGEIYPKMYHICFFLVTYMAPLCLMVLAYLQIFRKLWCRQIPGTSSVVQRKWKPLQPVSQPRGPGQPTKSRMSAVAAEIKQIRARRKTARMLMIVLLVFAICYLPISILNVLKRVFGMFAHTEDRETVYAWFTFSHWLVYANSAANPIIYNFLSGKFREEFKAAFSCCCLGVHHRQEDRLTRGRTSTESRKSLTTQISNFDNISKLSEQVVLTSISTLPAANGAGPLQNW
Remember the convention: pKi equals -log10 of concentration in molar.

As a guide, the following entries are already answered.
| Smiles Structure | Target Under Test | Measured Value |
| --- | --- | --- |
| O=C(c1ccccc1-c1ncccn1)N1C[C@H]2C[C@@H](Nc3ccc(C(F)(F)F)cn3)[C@@H]1C2 | human orexin 2 receptor (Homo sapiens (Human), UniProt O43614) | 6.72 |
| O=C(c1nccnc1-c1ccccc1)N1C[C@H]2C[C@@H](Nc3cnc(C(F)(F)F)cn3)[C@@H]1C2 | human orexin 2 receptor (Homo sapiens (Human), UniProt O43614) | 6.07 |
| O=C(c1ccccc1-n1nccn1)N1C[C@H]2C[C@@H](Oc3ccc(C(F)F)cn3)[C@@H]1C2 | human orexin 2 receptor (Homo sapiens (Human), UniProt O43614) | 7.30 |
| CN(c1ccc(C(F)(F)F)cn1)[C@@H]1C[C@H]2C[C@@H]1N(C(=O)c1c(F)cccc1-c1ncccn1)C2 | human orexin 2 receptor (Homo sapiens (Human), UniProt O43614) | 6.68 |

Now look at this entry.
pKi measured on `O=C(c1c(F)cccc1-c1ncccn1)N1C[C@H]2C[C@@H](Nc3ccc(Br)cn3)[C@@H]1C2` = 6.45

----------
molecular target: rat orexin 1 receptor (Rattus norvegicus); assay: Rat orexin 1 receptor radioligand binding; conditions: rat orexin 1 receptor; averages of 2-20 runs; read-out: rOX1 Ki
Recorded Metric: pKi
The read-out pKi is expressed as -log10 of concentration in moles per litre.

| Smiles Structure | pKi |
| --- | --- |
| O=C(c1ccccc1-c1ncccn1)N1C[C@H]2C[C@@H](Nc3cnc(C(F)(F)F)cn3)[C@@H]1C2 | 8.22 |
| Cc1ccc(-n2nccn2)c(C(=O)N2C[C@H]3C[C@@H](Oc4cnc(C(F)(F)F)cn4)[C@@H]2C3)n1 | 6.66 |
| COc1ccc(N[C@@H]2C[C@H]3C[C@@H]2N(C(=O)c2ccccc2-n2nccn2)C3)nc1 | 6.77 |
| O=C(c1cccc(F)c1-c1ncccn1)N1C[C@H]2CC[C@@H]1[C@@H](Nc1cnc(C(F)(F)F)cn1)C2 | 5.57 |
| O=C(c1cccnc1-n1nccn1)N1C[C@H]2C[C@@H](Nc3cnc(C(F)(F)F)cn3)[C@@H]1C2 | 6.72 |
| Cc1ccc(-n2nccn2)c(C(=O)N2C[C@H]3C[C@@H](Nc4ccc(C(F)(F)F)nn4)[C@@H]2C3)n1 | 6.95 |

Next compound, pKi to be filled in.
compound `Cc1ccc(-c2ncccn2)c(C(=O)N2C[C@H]3C[C@@H](Nc4ccc(C(F)(F)F)nn4)[C@@H]2C3)n1` , pKi observed: 6.94

----------
target: rat orexin 1 receptor (Rattus norvegicus, UniProt P56718); assay: Rat orexin 1 receptor radioligand binding; settings: rat orexin 1 receptor; averages of 2-20 runs; read-out: rOX1 Ki
pKi: −log10 of the molar value.
Lab note: compare pKi against 8. Equal or greater, write met. Smaller, write not met.

| Smiles Structure | Assigned Category |
| --- | --- |
| O=C(c1cccc(F)c1-c1ncccn1)N1C[C@@H]2CC[C@H]1[C@H](Oc1ccc(Br)cn1)C2 | met |

# evaluate next
[Q] Is pKi for `Cc1cnc(C(=O)N2C[C@H]3C[C@@H](Oc4ccc(C(F)F)cn4)[C@@H]2C3)c(-c2ncccn2)c1` at or above 8?
[A] not met
